- Protocol summary: BSK_CASM3C_SRB: Viability Assessment in the BioMAP Diversity Plus: CASM3C Assay (AID 2283050);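 note: total protein by SRB staining as cytotoxicity measure in parallel cultures; cells exposed to compound for 24 h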
- Conditions: primary human coronary artery smooth muscle cells
Active and inactive are the calls of the source. Rule for the calls: active = hit-call score of the fitted dose curve at least 0.9, where 1 is the maximum; inactive = score below 0.9.
Hello, when you answer, please use one of the following outcomes: active, inactive

Before answering, review these 5 worked examples.
Molecule | Category
OC(CCl)CCl | inactive
CCCCCCCCCC | inactive
FC(F)(F)C(F)(F)C(F)(F)C(F)(F)C(F)(F)C(F)(F)I | inactive
C=CN1CCCC1=O | inactive
CCCCCCCC1CCC(=O)O1 (centres undefined) | inactive

## Task Returns: the outcome recorded for C[Si](C)(C)C(F)(F)C(F)(F)C(F)(F)F in this assay.
## Result inactive

## Task Returns: the outcome recorded for CCCC(CCC)C(=O)O in this assay.
## Result inactive
